Task for the reader: assign each of the following compounds its reported TGI.
- System: IGROV1 ovarian
- TEST: NCI tumour cell line growth inhibition, 48 h
Only the number, expressed in µM, is required.

Query `C=CCn1c(SCC(=O)Nc2ccc(C(=O)/C=C/c3ccccc3)cc2)nnc1-c1c[nH]c2ccccc12` yields TGI of 86.3

Measured TGI, `O=C1Nc2ccc(F)cc2/C1=C/c1cccc(OCc2ccccn2)c1` : 36.2

For this compound ( `COc1ccc(-c2nc3cc(C)ccc3n2CC(=O)N=Nc2c(O)[nH]c3ccc(Cl)cc23)cc1` ), measured TGI is 24.5

Value of measured TGI for the entry `COc1ccc(-c2nc3cc(C)ccc3n2CC(=O)N=Nc2c(O)[nH]c3ccccc23)cc1` : 25
